Tested on: HLA class I
Run Description: PEPI3+ Test: 9 mer epitopes binding to at least 3 HLA class I of individuals in the Model Population (n=433)
Set-up: species or system human
Assay Context: B % multiplied by N % (antigen expression frequency in gastric cancers)
Parameter: B % * N % (%)
Report the figure in % without appending any unit label.

Entry 30 (HVMNPLETL; PRAME 9mer) [compound 30] : reported B % * N % = ? 4

Entry 17 (ILNNFPHSI; KK-LC-1 9mer) [compound 17] : reported B % * N % = ? 11

Entry 18 (FVQENYLEY; MAGE-A3 9mer) [compound 18] : reported B % * N % = ? 10

---

Tested on: HLA class I
Run Description: PEPI3+ Test: 9 mer epitopes binding to at least 3 HLA class I of individuals in the Model Population (n=433)
Set-up: species or system human
Assay Context: B % multiplied by N % (antigen expression frequency in gastric cancers)
Parameter: B % * N % (%)
Report the figure in % without appending any unit label.

Entry 24 (NTDNNLAVY; KK-LC-1 9mer) [compound 24] : reported B % * N % = ? 8

Entry 9 (LASNHFLYL; 5T4 9mer) [compound 9] : reported B % * N % = ? 21

Entry 28 (MTFGRLHRI; SSX1 9mer) [compound 28] : reported B % * N % = ? 7

Next:
Entry 3 (FSYEQDPTL; TSP50 9mer) [compound 3] : reported B % * N % = ? 29

Entry 25 (KAMVQAWPF; PRAME 9mer) [compound 25] : reported B % * N % = ? 7

Entry 27 (SAFPTTINF; MAGE-A1 9mer) [compound 27] : reported B % * N % = ? 7

---

Measured N % * B %, listed per entry.
Tested on: HLA class I
Run Description: PEPI3+ Test: 9 mer epitopes binding to at least 3 HLA class I of individuals in the Model Population (n=433)
Set-up: species or system human
Assay Context: N % (antigen expression frequency in lung cancers) multiplied by B %
Note to self: number, then unit, no commentary.

These recorded examples may help you get a feel for the data.
Entry 108 (FSTTINYTL; MAGE-A2 9mer) [compound 108] : reported N % * B % = ? 10%

Entry 110 (FVYGEPREL; MAGE-C2 9mer) [compound 110] : reported N % * B % = ? 10%

Next:
Entry 109 (MASESLSVM; MAGE-C2 9mer) [compound 109] : reported N % * B % = ? 10%

---

Test system: HLA class I
Run Description: PEPI3+ Test: 9 mer epitopes binding to at least 3 HLA class I of individuals in the Model Population (n=433)
Set-up: species or system human
Assay Context: B % multiplied by N % (antigen expression frequency in gastric cancers)
Please mark Met if the recorded B % * N % is equal to or greater than 20%, and Not met if it falls below.

Form field: B % * N % at least 20%? Entry: 13 (SSNSTALAL; KK-LC-1 9mer) [compound 13] Not met

Form field: B % * N % at least 20%? Entry: 29 (RALAETSYV; MAGE-A1 9mer) [compound 29] Not met

Form field: B % * N % at least 20%? Entry: 16 (FSTTINYTL; MAGE-A2 9mer) [compound 16] Not met

Form field: B % * N % at least 20%? Entry: 6 (RAIEQLAAM; SURVIVIN 9mer) [compound 6] Met

Form field: B % * N % at least 20%? Entry: 7 (FVASINEGM; HIWI 9mer) [compound 7] Met

Form field: B % * N % at least 20%? Entry: 10 (FLYLPRDVL; 5T4 9mer) [compound 10] Met

Form field: B % * N % at least 20%? Entry: 2 (KMHSLLALM; CAGE-1 9mer) [compound 2] Met

Form field: B % * N % at least 20%? Entry: 22 (TSYVKVLEY; MAGE-A1 9mer) [compound 22] Not met

Form field: B % * N % at least 20%? Entry: 8 (TTMETQFPV; TSP50 9mer) [compound 8] Met

Form field: B % * N % at least 20%? Entry: 19 (ITMPFSSPM; LAGE-1 9mer) [compound 19] Not met

Form field: B % * N % at least 20%? Entry: 11 (SSFSSSAPF; 5T4 9mer) [compound 11] Not met

Form field: B % * N % at least 20%? Entry: 4 (YLRLHRHAY; DPPA2 9mer) [compound 4] Met

Form field: B % * N % at least 20%? Entry: 12 (FAHPRKLLM; MAGE-A2 9mer) [compound 12] Not met

Form field: B % * N % at least 20%? Entry: 21 (YEDHFPLLF; MAGE-A10 9mer) [compound 21] Not met

Form field: B % * N % at least 20%? Entry: 1 (KMMKRLMTV; MAGE-C1 9mer) [compound 1] Met

Form field: B % * N % at least 20%? Entry: 14 (STNALIQPV; CAGE-1 9mer) [compound 14] Not met

Form field: B % * N % at least 20%? Entry: 5 (LQYENSIML; HIWI 9mer) [compound 5] Met

Form field: B % * N % at least 20%? Entry: 15 (STFKNWPFL; SURVIVIN 9mer) [compound 15] Not met
